# Tested on: Saccharomyces cerevisiae
# Assay Method Text: protein stability index of tFT-peptide fusion (C-terminal peptide) (PSI (0-1 scale)); higher = more stable (slower turnover)
# Conditions: genetic background: wild type; temperature: 30 C
// values below are reported protein stability index
// print number alone

# count of solved cases: 5
PQENHDNKEEQS [HEK2 C-terminal 12 aa] = 0.688
KGTFLANLTDLI [SWF1 C-terminal 12 aa] = 0.665
EVYLQAIDLIDC [PIR3 C-terminal 12 aa] = 0.661
KQKEAWYSFLFK [SCO1 C-terminal 12 aa] = 0.682
FLEIVVPCHCTT [YJL077W-A C-terminal 12 aa] = 0.56

Request: GET /values?readout=protein stability index&system=Saccharomyces cerevisiae&item= YVIHLDQIDRDL [YLR269C C-terminal 12 aa]
Result: 0.699

Request: GET /values?readout=protein stability index&system=Saccharomyces cerevisiae&item= SKPALGTCLYEQ [GAL3 C-terminal 12 aa]
Result: 0.665

Request: GET /values?readout=protein stability index&system=Saccharomyces cerevisiae&item= GAAVRLTGSDRV [RPN7 C-terminal 12 aa]
Result: 0.679

Request: GET /values?readout=protein stability index&system=Saccharomyces cerevisiae&item= LLSLLRVLKQPH [CSS1 C-terminal 12 aa]
Result: 0.66

====

# Tested on: Saccharomyces cerevisiae
# Assay Method Text: protein stability index of tFT-peptide fusion (C-terminal peptide) (PSI (0-1 scale)); higher = more stable (slower turnover)
# Conditions: genetic background: wild type; temperature: 30 C
Please map values of protein stability index to classes as shown: zone 1 (below 0.2), zone 2 (0.2 to below 0.4), zone 3 (0.4 or more)

Request: Dear colleague, I would appreciate it if you could identify the bin for `VFRHFYTFLALC` and reply at your convenience.
Result: zone 1

Request: Dear colleague, I would appreciate it if you could identify the bin for `VCFWCLYVMFSL` and reply at your convenience.
Result: zone 2

Request: Dear colleague, I would appreciate it if you could identify the bin for `PTFSPSLPPPRS` and reply at your convenience.
Result: zone 3

Request: Dear colleague, I would appreciate it if you could identify the bin for `LFRRMWVEIFYV` and reply at your convenience.
Result: zone 1

Request: Dear colleague, I would appreciate it if you could identify the bin for `RGPSQVIVAFFV` and reply at your convenience.
Result: zone 2

Request: Dear colleague, I would appreciate it if you could identify the bin for `GFLFVLCAWGFF` and reply at your convenience.
Result: zone 2

Request: Dear colleague, I would appreciate it if you could identify the bin for `GCVLVFFLRLDL` and reply at your convenience.
Result: zone 2

Request: Dear colleague, I would appreciate it if you could identify the bin for `WCVCVSMRMIAI` and reply at your convenience.
Result: zone 1

Request: Dear colleague, I would appreciate it if you could identify the bin for `LPPSPPCQSPAL` and reply at your convenience.
Result: zone 3

Request: Dear colleague, I would appreciate it if you could identify the bin for `RIVLRPPFNSVA` and reply at your convenience.
Result: zone 2

Request: Dear colleague, I would appreciate it if you could identify the bin for `IVTSFVSPVYIC` and reply at your convenience.
Result: zone 1

Request: Dear colleague, I would appreciate it if you could identify the bin for `SLPCCKVVFCVI` and reply at your convenience.
Result: zone 2

Request: Dear colleague, I would appreciate it if you could identify the bin for `RILFSPSTFYLF` and reply at your convenience.
Result: zone 2

Request: Dear colleague, I would appreciate it if you could identify the bin for `EMSIISVLRVIS` and reply at your convenience.
Result: zone 2

Request: Dear colleague, I would appreciate it if you could identify the bin for `FPLGAQTWLCLS` and reply at your convenience.
Result: zone 2

Request: Dear colleague, I would appreciate it if you could identify the bin for `GSLHVISVVGML` and reply at your convenience.
Result: zone 3

Request: Dear colleague, I would appreciate it if you could identify the bin for `YTLWFLAWGLVF` and reply at your convenience.
Result: zone 2

Request: Dear colleague, I would appreciate it if you could identify the bin for `LERLHSVLLLTS` and reply at your convenience.
Result: zone 2
